# testSystem: CDK2/cyclin A2 (Homo sapiens)
# Construct: purchased Carna Biosciences, Inc. QS S Assist CDK2/Cyclin A2_FP Kit
# assayName: Human CDK2/cyclin A2 inhibitory activity (QS S Assist CDK2/Cyclin A2_FP Kit, IMAP fluorescence polarization)
# Type: biochemical
# assayContext: 50% inhibitory concentration against CDK2/cyclin A2, given as class symbol

>  <molecule>
C[C@@H](O)c1cc2cnc(Nc3ccc(N4CCNCC4=O)cn3)nc2c(NC2CCCC2)n1

>  <IC50>
≥ 100 nM

$$$$
>  <molecule>
CC(C)Nc1nc([C@@H](C)O)cc2cnc(Nc3ccc(N4CCC(CO)C4)nn3)nc12 (stereo partly shown)

>  <IC50>
≥ 100 nM

$$$$
>  <molecule>
CC(=O)c1cc2cnc(Nc3ccc(N4CCNCC4=O)cn3)nc2c(NC(C)C)n1

>  <IC50>
≥ 100 nM

$$$$
>  <molecule>
C[C@@H](O)c1cc2cnc(Nc3ccc4c(n3)CCN(C(=O)OCCN(C)C)C4)nc2c(N[C@H]2CCCOC2)n1

>  <IC50>
≥ 100 nM

$$$$
>  <molecule>
CC(C)Nc1nc([C@@H](C)O)c(F)c2cnc(Nc3ccc(N4CCNCC4=O)cn3)nc12

>  <IC50>
10 to 100 nM

$$$$
>  <molecule>
CC(C)Nc1nc(C(C)O)cc2cnc(Nc3ccc(N4CCN(C(C)CO)CCC4=O)cn3)nc12 (single isomer, unassigned) [Compound 809]

>  <IC50>
10 to 100 nM

$$$$
>  <molecule>
CC(C)Nc1nc(C2CCOC2)cc2cnc(Nc3ccc4c(n3)CCNC4)nc12 (stereo not shown)

>  <IC50>
≥ 100 nM

$$$$
